test system: VeroE6 cells; conditions: read-out: Cytotoxicity (CC50) Vero E6; uninfected Vero E6 cells
Measured attribute: CC50

Name the reported CC50 value associated with the compound CCOC(=O)[C@H]1O[C@@H]1C(=O)N[C@@H](CC(C)C)C(=O)NCCC(C)C [Compound E64d]
> 100 µM

* * *

Kindly supply the reported IC50 values for the records listed here.
test system: Z-138 non-Hodgkin lymphoma cells; experiment: Antiproliferative activity, Z-138 cells; format: cell-based, human; conditions: Homo sapiens, Z-138, 72 h, Z-138, 72 h incubation
Answers are plain numbers, in µM.

COc1ccc(-c2cnc3c(c2)nc(-c2ccccc2)n3C)cc1 [Compound 20]    86
O=[N+]([O-])c1ccc(-c2cnc3[nH]c(-c4ccccc4)nc3c2)cc1 [Compound 16]    65.2
Cn1c(-c2ccccc2)nc2cc(-c3ccc(O)cc3)cnc21 [Compound 19]    1.45

For every item in the list below, what is its measured IC50?
1. Cn1c(-c2ccccc2)nc2cc(-c3ccc([N+](=O)[O-])cc3)cnc21 [Compound 23]
2. c1ccc(-c2cnc3[nH]c(-c4ccccc4)nc3c2)cc1 [Compound 12, 2.6-diphenyl-3H-imidazo[4,5-b]pyridine]
3. Oc1ccc(-c2cnc3[nH]c(-c4ccccc4)nc3c2)cc1 [Compound 13]
4. Nc1ccc(-c2cnc3[nH]c(-c4ccccc4)nc3c2)cc1 [Compound 17]
5. N#Cc1ccc(-c2cnc3[nH]c(-c4ccccc4)nc3c2)cc1 [Compound 15]

1. 72.9
2. 30.1
3. 1.87
4. 40.9
5. 34.4

* * *

test: in vitro; settings: dog
Kindly supply the reported CC50 values for the records listed here.

For every item in the list below, what is its measured CC50?
1. CC(N)C12CC3CC(CC(C3)C1)C2 (stereo not shown)
2. N#Cc1ccc(-c2cnc3[nH]c(-c4ccccc4)nc3c2)cc1
3. NC(=O)c1ncn([C@@H]2O[C@H](CO)[C@@H](O)[C@H]2O)n1
4. CC(=O)N[C@H]1[C@H]([C@H](O)[C@H](O)CO)OC(C(=O)O)=C[C@@H]1N=C(N)N

1: > 100 µM; 2: > 50 µM; 3: > 250 µM; 4: > 100 µM

* * *

test: in vitro; details: human
Measured attribute: CC50

N#Cc1ccc(-c2cnc3[nH]c(-c4ccccc4)nc3c2)cc1    > 50 µM

From here, focus on the item given below.
Name the reported CC50 value associated with the compound `CCC(CC)COC(=O)[C@H](C)N[P@](=O)(OC[C@H]1O[C@@](C#N)(c2ccc3c(N)ncnn23)[C@H](O)[C@@H]1O)Oc1ccccc1`
> 10 µM

* * *

Kindly supply the reported pIC50 values for the records listed here.
tested on: Capan-1 pancreatic adenocarcinoma cells; experiment: Antiproliferative activity, Capan-1 cells; format: cell-based, human; settings: Homo sapiens, CAPAN-1, 72 h, Capan-1, 72 h incubation
Answers are plain numbers, as −log10 of the molar value.

Solved cases below.
c1ccc(-c2cnc3[nH]c(-c4ccccc4)nc3c2)cc1 [Compound 12, 2.6-diphenyl-3H-imidazo[4,5-b]pyridine]    4.45
Cn1c(-c2ccccc2)nc2cc(-c3ccc(O)cc3)cnc21 [Compound 19]    5.72
N#Cc1ccc(-c2cnc3[nH]c(-c4ccccc4)nc3c2)cc1 [Compound 15]    4.96

From here, focus on the item given below.
Name the reported pIC50 value associated with the compound COc1cc([C@@H]2c3cc4c(cc3[C@@H](O[C@@H]3O[C@@H]5CO[C@@H](C)O[C@H]5[C@H](O)[C@H]3O)[C@H]3COC(=O)[C@H]23)OCO4)cc(OC)c1O [ETO, etoposide, reference compound]
7.00

* * *

test: in vitro; details: human
Measured attribute: CC50

N#Cc1ccc(-c2cnc3[nH]c(-c4ccccc4)nc3c2)cc1    > 50 µM

From here, focus on the item given below.
Name the reported CC50 value associated with the molecule `CCC(CC)COC(=O)[C@H](C)N[P@](=O)(OC[C@H]1O[C@@](C#N)(c2ccc3c(N)ncnn23)[C@H](O)[C@@H]1O)Oc1ccccc1`
> 10 µM

* * *

tested on: herpes simplex virus-1 (HSV-1 KOS); test: Antiviral CPE assay, HSV-1 in HEL 299; format: cell-based; details: HEL 299 host cells
Measured attribute: EC50

Name the reported EC50 value associated with the compound CCOC(=O)[C@H]1O[C@@H]1C(=O)N[C@@H](CC(C)C)C(=O)NCCC(C)C [Compound E64d]
> 100 µM

* * *

tested on: influenza B (B/Ned/537/05); test: Antiviral CPE assay, influenza B in MDCK; assay type: cell-based; conditions: Influenza B virus; MDCK host cells
Measured attribute: EC50 (µM)
One number for each entry, in µM.

Solved cases below.
CC(=O)N[C@H]1[C@H]([C@H](O)[C@H](O)CO)OC(C(=O)O)=C[C@@H]1N=C(N)N    0.5
NC(=O)c1ncn([C@@H]2O[C@H](CO)[C@@H](O)[C@H]2O)n1    5.2

From here, focus on the item given below.
Name the reported EC50 value associated with the compound `N#Cc1ccc(-c2cnc3[nH]c(-c4ccccc4)nc3c2)cc1`
34.5

* * *

system: Z-138 non-Hodgkin lymphoma cells; assay: Antiproliferative activity, Z-138 cells; assay type: cell-based, human; details: Homo sapiens, Z-138, 72 h, Z-138, 72 h incubation
Measured attribute: IC50 (µM)
Answers are plain numbers, in µM.

Solved cases below.
Cn1c(-c2ccccc2)nc2cc(-c3ccc(C#N)cc3)cnc21 [Compound 21]    62.8
COc1cc([C@@H]2c3cc4c(cc3[C@@H](O[C@@H]3O[C@@H]5CO[C@@H](C)O[C@H]5[C@H](O)[C@H]3O)[C@H]3COC(=O)[C@H]23)OCO4)cc(OC)c1O [ETO, etoposide, reference compound]    0.05

From here, focus on the item given below.
Name the reported IC50 value associated with the compound Cn1c(-c2ccccc2)nc2cc(-c3ccc(C(N)=O)cc3)cnc21 [Compound 22]
58.1

* * *

test system: HCT-116 colorectal carcinoma cells; test: Antiproliferative activity, HCT-116 cells; assay type: cell-based, human; details: HCT-116, 72 h incubation
Measured attribute: pIC50
Numbers only, as −log10 of the molar value.

Lab note: need pIC50 with HCT-116 colorectal carcinoma cells for entry `Cn1c(-c2ccccc2)nc2cc(-c3ccc(N)cc3)cnc21` , please look it up.
4.25

* * *

tested on: Capan-1 pancreatic adenocarcinoma cells; assay: Antiproliferative activity, Capan-1 cells; format: cell-based, human; settings: Homo sapiens, CAPAN-1, 72 h, Capan-1, 72 h incubation
Kindly supply the reported IC50 values for the records listed here.

Solved cases below.
COc1ccc(-c2cnc3[nH]c(-c4ccccc4)nc3c2)cc1 [Compound 14]    > 100 µM
Cn1c(-c2ccccc2)nc2cc(-c3ccc([N+](=O)[O-])cc3)cnc21 [Compound 23]    > 100 µM

From here, focus on the item given below.
Lab note: need IC50 with Capan-1 pancreatic adenocarcinoma cells for entry Cn1c(-c2ccccc2)nc2cc(-c3ccc(C#N)cc3)cnc21 [Compound 21] , please look it up.
> 100 µM

* * *

Kindly supply the reported pIC50 values for the records listed here.
test system: Capan-1 pancreatic adenocarcinoma cells; experiment: Antiproliferative activity, Capan-1 cells; assay type: cell-based, human; settings: Homo sapiens, CAPAN-1, 72 h, Capan-1, 72 h incubation
pIC50: −log10 of the molar value.

Solved cases below.
O=[N+]([O-])c1ccc(-c2cnc3[nH]c(-c4ccccc4)nc3c2)cc1 [Compound 16]    < 4.00
Cn1c(-c2ccccc2)nc2cc(-c3ccc(C(N)=O)cc3)cnc21 [Compound 22]    < 4.00

From here, focus on the item given below.
Name the reported pIC50 value associated with the molecule COc1ccc(-c2cnc3c(c2)nc(-c2ccccc2)n3C)cc1 [Compound 20]
< 4.00
